Documented normalized growth across a set of compounds
test: chemical genetic growth profiling, strain panel (AID 1159580);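 further: tested at 20 µM; growth read once vehicle control cultures reached saturation at 30 °C; 1 = growth at the plate median or of vehicle wells; lower values mean less growth of the strain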; conditions: S. cerevisiae deletion strains, growth OD, locus YCL016C, strain dcc1, stronger effect = lower value
About 2,000 (36%) of roughly 5,500 compounds were called active. Another 18% or so got no clear call; they are omitted. This is one part of the list.
MEASUREMENT TYPE: normalized growth

{"COMPOUND": "CC[C@H](C)C(=O)O[C@H]1CCC=C2C=C[C@H](C)C(CCC3C[C@@H](O)CC(=O)O3)[C@H]21 (stereo partly specified)", "EXPERIMENTAL VALUE": 0.997}
{"COMPOUND": "COC(=O)C[C@H]1C(C)(C)C(=O)[C@@H]2CC3=C(CC[C@]4(C)C3=CC(=O)O[C@H]4c3ccoc3)[C@@]1(C)C2=O", "EXPERIMENTAL VALUE": 0.993}
{"COMPOUND": "CC(C)[C@@H]1CC[C@@H](C)C[C@H]1O", "EXPERIMENTAL VALUE": 0.995}
{"COMPOUND": "C[C@H]1CC[C@@H](C(C)(C)O)CC2=C1CC[C@@H]2C", "EXPERIMENTAL VALUE": 0.976}
{"COMPOUND": "CC(=O)OCC[C@H](C)CCC=C(C)C", "EXPERIMENTAL VALUE": 0.994}
{"COMPOUND": "CC(C)(C)CC(C)(C)c1ccc(O)c(Cc2ccc(Cl)cc2Cl)c1", "EXPERIMENTAL VALUE": 1.01}
{"COMPOUND": "CC(=O)OCC(OC(C)=O)C(OC(C)=O)C(OC(C)=O)C(OC(C)=O)C(COC(C)=O)OC(C)=O (stereo unspecified)", "EXPERIMENTAL VALUE": 0.994}
{"COMPOUND": "CC(C)C(=O)Nc1ccc([N+](=O)[O-])c(C(F)(F)F)c1", "EXPERIMENTAL VALUE": 1.01}
{"COMPOUND": "CC[C@H](C)C(=O)O[C@H]1C[C@@H](C)C=C2C=C[C@H](C)[C@H](CC[C@@H]3C[C@@H](O)CC(=O)O3)[C@H]21", "EXPERIMENTAL VALUE": 0.999}
{"COMPOUND": "C#CCCCCCCCCCCCC(=O)CC(O)COC(C)=O (stereo unspecified)", "EXPERIMENTAL VALUE": 0.984}
{"COMPOUND": "COc1c(OC)c2occc2c2oc(=O)ccc12", "EXPERIMENTAL VALUE": 0.98}
{"COMPOUND": "OCc1ccccc1O", "EXPERIMENTAL VALUE": 1.02}
{"COMPOUND": "Oc1ccc(Cl)cc1", "EXPERIMENTAL VALUE": 1.02}
{"COMPOUND": "CCOC(=O)[C@H](CCc1ccccc1)N[C@@H](C)C(=O)N1[C@H](C(=O)O)C[C@@H]2CCC[C@@H]21", "EXPERIMENTAL VALUE": 0.985}
{"COMPOUND": "C[C@@H]1C(=O)OC2[C@H](O)C34[C@@H]5OC(=O)[C@@]3(O[C@@H]3OC(=O)[C@H](O)[C@@]34[C@H](C(C)(C)C)[C@H]5O)[C@]21O (stereo partly specified)", "EXPERIMENTAL VALUE": 0.975}
{"COMPOUND": "NC(=O)c1cccc(N)c1", "EXPERIMENTAL VALUE": 0.988}

These data points were gathered from PubChem BioAssay AID1159580.
